Assayed System: Calcium-dependent protein kinase 1 (Plasmodium falciparum (isolate 3D7))
Assay Name: PfCDPK1 kinase inhibitors, biochemical, TCAMS library (AID 1159585);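 also: inhibitors leave more ATP so luminescence rises with inhibition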
Condition Context: recombinant PfCDPK1, Kinase-Glo ATP depletion luminescence
Entries with a potency or affinity are not part of this list. The source made the active and inactive calls. The limit is not given here; nearly all actives have IC50 up to about 0.98 µM.
Measurement Kind: outcome

Would you please look over these solved cases?
>>> observed("COc1ccc2nccc([C@@H](O)CN3CCC(NCC(O)Cc4ccccc4)CC3)c2c1 (some centres undefined)")
"inactive"
>>> observed("Cn1nccc1C(=O)NCCNCc1ccc(-c2ccc(-c3nc4ccc(C(F)(F)F)cc4[nH]3)s2)cc1")
"inactive"
>>> observed("O=[N+]([O-])c1cccc(S(=O)(=O)N2CCN(CC(O)COc3ccc(-c4ccccc4)cc3)CC2)c1 (centres undefined)")
"inactive"
>>> observed("Cc1cc2c(cc1C(F)(F)F)N(C(=O)Nc1cc(C(=O)NC3CCN(Cc4ccccc4)C3)cc(C(F)(F)F)c1)CC2 (centres undefined)")
"inactive"
>>> observed("CSc1ccc(CN2CCC(CNC(=O)c3cc(-c4ccccc4F)cs3)C2)cc1 (centres undefined)")
"inactive"
>>> observed("CC(C)CCN1CCC(Oc2ccc(NC(=O)c3ccc4ncccc4c3)cc2Cl)C1 (centres undefined)")
"inactive"

Q: So what outcome did O=C(Nc1ccc(OC2CCN(Cc3ccccc3)C2)c(Cl)c1)c1cccs1 (centres undefined) get with Calcium-dependent protein kinase 1 (Plasmodium falciparum (isolate 3D7))?
Ans: inactive

Q: Now the compound `COc1cc(CNCCCCCCNCc2cc(OC)cc3ccccc23)c2ccccc2c1`
Ans: inactive

Q: One more compound: `CCN(CC)c1ccc(C(=O)Cn2ccc(=N)cc2)cc1`
Ans: inactive

###

Assayed System: Plasmodium falciparum protein kinase 6 (PK6, PF3D7_1337100) (UniProt Q8IDW1)
Assay Name: PfPK6 kinase inhibitors, biochemical, TCAMS library (AID 1159586)
Condition Context: recombinant PfPK6, Kinase-Glo ATP depletion luminescence
Measured potencies and affinities stand elsewhere. Calls of active or inactive are those of the source. No rule for the calls is given here.
Measurement Kind: outcome

# example entries with known answers
>>> observed("O=C(NCc1cccc(F)c1)Nc1cccc(-c2ccc(-c3nc4ccc(C(F)(F)F)cc4[nH]3)cc2)c1")
"inactive"
>>> observed("C=C[C@H]1CN(CCCCCCC)CC[C@H]1CC(O)Cc1ccnc2cc(O)c(OC)cc12 (some centres undefined)")
"inactive"
>>> observed("CN(C)CCNCc1ccc(-c2ccc3c(Nc4ccc(F)cc4Cl)ccnc3c2)o1")
"inactive"
>>> observed("COc1ccc(NC(=O)Nc2cc(C)nc3cccnc23)cc1Cn1ccnc1")
"inactive"
>>> observed("c1ccc2[nH]c(-c3ccc(-c4ccc(CN5CCCCC5)cc4)s3)nc2c1")
"inactive"

Q: Observed outcome on Plasmodium falciparum protein kinase 6 (PK6, PF3D7_1337100) (UniProt Q8IDW1) for COc1ccc(C2CCC(NCCCCNC(=O)c3ccc(NC(=O)c4ccc(Cl)cc4)cc3)CC2)cc1 (centres undefined) , please.
Ans: inactive

Q: And for `CN1CCc2ccc(NC(=O)Nc3ccc(-c4ccccc4)cc3)cc2C1` ?
Ans: inactive

Q: Query CC(=O)N(Cc1ccc(CC(C)NCCc2cccc(Cl)c2)cc1)Cc1ccc(CC(C)NCCc2cccc(Cl)c2)cc1 (centres undefined) next
Ans: inactive

###

Assay Name: inhibition of 3D7 malaria parasite growth – strain 3D7 (AID 2306);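 also: 0% = DMSO wells and 100% = chloroquine plus artemisinin control wells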
Condition Context: P. falciparum 3D7 erythrocytic growth, LDH absorbance, 72 h; at 2 µM; active compounds read high
Listing of entries alongside the reported growth inhibition.
Please give a number only; it is taken to be in %.

>>> observed("Nc1c(Cl)cc(C(O)CNCCCCCCOCCc2ccc(CO)s2)cc1Cl (stereo not given)")
86
>>> observed("Cc1ccc(Cn2nc(Cl)c(N3CCCNCC3)cc2=O)cc1NC(=O)Nc1ccc(-c2ccccc2)cc1")
101
>>> observed("Fc1ccc2c(NN=Cc3ccc(Cl)cc3)ccnc2c1")
101
>>> observed("O=C(Nc1cccc(CN2CCCN(Cc3ccsc3)CC2)c1)c1ccc(Cl)c(Cl)c1")
98
>>> observed("COc1cc(NC(=O)c2c(-c3c(Cl)cccc3Cl)noc2C)c(OC)cc1Cl")
85

Q: Please report the recorded growth inhibition for O=C1Nc2cccc3c2C1(CCCCCN1CCC(c2c[nH]c4ccncc24)CC1)CCC3 (stereo not given) .
Ans: 95

Q: Next compound: `CN(C(=O)NCCc1ccccc1)C1CCN(CCCCCNC(=O)/C=C/c2ccc(Cl)c(Cl)c2)CC1`
Ans: 93

###

Assayed System: Plasmodium falciparum protein kinase 6 (PK6, PF3D7_1337100)
Assay Name: PfPK6 kinase inhibitors, biochemical, TCAMS library (AID 1159586)
Condition Context: recombinant PfPK6, Kinase-Glo ATP depletion luminescence
Entries with a potency or affinity are not part of this list. Activity calls are given as the source filed them. No rule for the calls is given here.
Measurement Kind: outcome

>>> observed("O=C(/C=C/c1ccc(Cl)c(Cl)c1)NCCCCCN1CCC(NC(=O)Nc2ccc(OC(F)F)cc2)CC1")
"inactive"
>>> observed("Cc1noc(C)c1-c1cccc(CNCc2cccc(-c3cccc(-c4nc5c(C)cccc5[nH]4)c3)c2)c1")
"inactive"
>>> observed("COc1ccc(-c2csc(N(CCCN(C)C)C(=O)c3cc4c(C)nn(-c5ccccc5)c4s3)n2)cc1")
"inactive"
>>> observed("O=c1cc(NCCCNCc2cc(C(F)(F)F)ccc2Cl)[nH]c2ccccc12")
"inactive"
>>> observed("Cc1cccc2[nH]c(-c3ccc(-c4ccc(NC(=O)Nc5ccsc5)cc4)s3)nc12")
"inactive"

Q: Data request, read-out outcome, for `COc1ccc(N2CCN(CCCCNC(=O)c3ccc(NC(=O)c4cc(C(F)(F)F)cc(C(F)(F)F)c4)cc3)CC2)c(OC)c1`
Ans: inactive

Q: Continue with `COCCn1c(Sc2ccc(C#N)c([N+](=O)[O-])c2)nnc1-c1ccc(N(C)C)cc1`
Ans: inactive

Q: # repeat for `O=C(Nc1ccc2c(c1)CCC2)c1ccc(N2CCN(c3ccncc3)CC2)cc1`
Ans: inactive

Q: Moving on to the next compound: `CC(=O)Nc1cccc(C(=O)Nc2cccc(-c3ccc(-c4nc5c(C)cccc5[nH]4)cc3)c2)c1`
Ans: inactive

Q: Please do the same for `Fc1ccc2nc(-c3ccc(-c4ccc(CNCCN5CCNCC5)cc4)cc3)[nH]c2c1` as well.
Ans: inactive

Q: Would you mind doing `OCCN1CCN(Cc2ccc(-c3ccc(-c4nc5ccc(C(F)(F)F)cc5[nH]4)s3)cc2)CC1` as well?
Ans: inactive

###

Assay Name: inhibition of 3D7 malaria parasite growth – strain 3D7 (AID 2306);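 also: 0% = DMSO wells and 100% = chloroquine plus artemisinin control wells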
Condition Context: P. falciparum 3D7 erythrocytic growth, LDH absorbance, 72 h; at 2 µM; active compounds read high
Measurement Kind: growth inhibition (%)
Write down the numeric answer in % and omit the unit.

Example compounds with recorded growth inhibition:
>>> observed("COc1cc(NCCCNC(=O)c2ccc(Cl)c(Cl)c2)nc2ccccc12")
99
>>> observed("CO/C(=C\\C=C\\c1cc2cc(Cl)c(Cl)cc2[nH]1)C(=O)NCCCN1CCN(c2ccncc2)CC1")
98
>>> observed("N#Cc1c(N2CCCCCC2)nc(N)c2c(N)nc3c(c12)CC(=O)N3c1ccc(F)cc1")
97
>>> observed("CC(C)CCNc1nc(NCCc2ccccc2)c2cc(O)ccc2n1")
101
>>> observed("O=c1cc(NCCCNCc2[nH]c3cc(Cl)cc(Cl)c3c2Cn2cccn2)[nH]c2ccccc12")
86

Q: Find the recorded growth inhibition belonging to `COc1c(C2=CCN(CCCCNC(=O)c3ccc(-c4ccc(C#N)cc4)cc3)CC2)c(C)cc2c1C(C)(C)CCC2(C)C` and report it.
Ans: 92

###

Assayed System: L-lactate dehydrogenase (Plasmodium falciparum (isolate CDC / Honduras)) (UniProt Q27743)
Sequence (Q27743 whole entry, looked up): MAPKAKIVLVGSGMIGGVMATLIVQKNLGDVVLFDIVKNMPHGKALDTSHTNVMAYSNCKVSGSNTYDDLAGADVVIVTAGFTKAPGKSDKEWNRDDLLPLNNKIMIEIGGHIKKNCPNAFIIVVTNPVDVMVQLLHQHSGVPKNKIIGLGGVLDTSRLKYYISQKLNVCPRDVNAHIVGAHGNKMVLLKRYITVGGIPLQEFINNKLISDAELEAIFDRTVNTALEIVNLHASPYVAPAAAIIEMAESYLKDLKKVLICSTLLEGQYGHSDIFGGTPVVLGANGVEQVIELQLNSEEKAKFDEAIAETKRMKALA
Assay Name: PfLDH activity inhibition – cell lysate, 3D7 strain, counter-screen for P. falciparum growth inhibition project (AID 2304);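 also: 0% = vehicle and 100% = reference inhibitor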
Condition Context: P. falciparum 3D7 crude extract, LDH APAD/NBT absorbance; at 2 µM; active compounds read high
Measured inhibition accompanies every entry in the list below.
Please give a number only; it is taken to be in %.

>>> observed("O=C(OCc1ccccc1)N1CCc2c([nH]c3ccccc23)C1CCC(F)(F)F (stereo not given)")
3
>>> observed("COc1ccc2c(c1)S(=O)(=O)N=C(N1CCCC1c1ccc(Cl)c(Cl)c1)N2C (stereo not given)")
0
>>> observed("O=C(COc1ccccc1Cl)N1CCc2cc3nccc(N4CCN5CCC[C@H]5C4)c3cc21")
-1
>>> observed("Cc1ccc(F)cc1-c1cc(N2CCCN(C(=O)c3ccc(Br)o3)CC2)ncn1")
0

Q: Field request: inhibition | item: `COc1ccc(NC(=O)[C@H](Cc2ccccc2)Nc2cc(C)nc(NCc3ccccc3C)n2)cc1`
Ans: 2

Q: For `CCN(CCCN1CCCCC1)c1cc(C)nc(Nc2ccc(OC)cc2)n1` then?
Ans: -6

The reported measurements were obtained from PubChem BioAssay.
